- target-or-system: Man(a1-3)[Man(a1-6)]Man(a1-6)[Man(a1-2)Man(a1-3)]Man(b1-4)GlcNAc(b1-4)GlcNAc
- method: glycan array binding signal (z-score within array); higher = stronger binding
- condition-label: glycan notation: IUPAC condensed, linker removed
Only a selection was taken, and the strongest signals are over-represented in it overall.
Examples of binders with documented glycan array binding signal (z-score) follow.
Output: the number by itself.

binder | glycan array binding signal (z-score)
HHL-1 (Homo sapiens), P07306 (protein) TKEYQDLQHLDNEESDHHQLRKGPPPPQPLLQRLCSGPRLLLLSLGLSLLLLVVVCVIGSQNSQLQEELRGLRETFSNFTASTEAQVKGLSTQGGNVGRKMKSLESQLEKQQKDLSEDHSSLLLHVKQFVSDLRSLSCQMAALQGNGSERTCCPVNWVEHERSCYWFSRSGKAWADADNYCRLEDAHLVVVTSWEEQKFVQHHIGPVNTWMGLHDQNGPWKWVDGTDYETGFKNWRPEQPDDWYGHGLGGGEDCAHFTDDGRWNDDVCQRPYRWVCETELDKASQEPPLL | -0.485

Now for a further binder.
I am curious: what glycan array binding signal (z-score) value has been reported for SP15308F-bth-333-19-333 (Bacteroides thetaiotaomicron) (protein) SCNNEWESEQYVQMVSFKAPVNAQGVTPIYIRYKPEGKVTYQLPLIVSGSTMNSKDLNVHVGLDLDTLDVLNVEHFGSRKELFFKPLENKYYEFPETVQIPAGECTSLLPIDFALKDLDQVDKWVLPLAIQSNDPSHNYQANPRKFYRRAMLRISPFNDYSGQYSATAYKVYFKGNEKEAIVPEYHTSYVIDDKTIFFYAGLIDIDRLDRKYYKIKFEFTEEKIDLQTRKLKISSDNEDINLVVKGQPSYTVEEEMDATRPYLKHIYVTINNLEYEFTDYTSVPGYPLEYVVKGSLTMERKINTQIPDEDQAIEW ?
-0.363

Value source: the supplement of paper PMC8728848
